FYI, the data here is from patent US11708348B2.

Measured EC50, listed per entry.
Test system: SARS-CoV-2 strain USA-WA1/2020
Assay: microbe, parasite or virus in culture
Format: cell-based
Conditions: Severe acute respiratory syndrome coronavirus 2, HeLa-ACE2, 24 h, HeLa-ACE2 cells, SARS-CoV-2 infection, 24 h; given as bound; read-out: EC50, uM (Hela)

smiles_input=C[C@@H]1C[C@H]2[C@H](C[C@H](C(=O)N[C@@H](C[C@@H]3CCNC3=O)C(=O)COC(F)(F)F)N2C(=O)C(=O)NC(C)(C)C)O1 target="SARS-CoV-2 strain USA-WA1/2020" measurement="> 1 µM"
smiles_input=O=C1NCC[C@H]1C[C@H](NC(=O)[C@@H]1[C@H]2CCC[C@H]2CN1C(=O)c1noc2c1CNCC2)C(=O)COC(F)(F)F target="SARS-CoV-2 strain USA-WA1/2020" measurement="> 1 µM"
smiles_input=CC(C)(C)NC(=O)C(=O)N1C[C@H]2C[C@]1(C(=O)N[C@@H](C[C@@H]1CCNC1=O)C(=O)COC(F)(F)F)C2 target="SARS-CoV-2 strain USA-WA1/2020" measurement="> 1 µM"
smiles_input=C[C@@]12C[C@@H](C(=O)N[C@@H](C[C@@H]3CCNC3=O)C(=O)COC(F)(F)F)N(C(=O)C(=O)Nc3ccccc3F)[C@@H]1C2 target="SARS-CoV-2 strain USA-WA1/2020" measurement="> 1 µM"
smiles_input=COC(=O)C(=O)N1C[C@@H]2CCC[C@@H]2[C@H]1C(=O)N[C@@H](C[C@@H]1CCNC1=O)C(=O)COC(F)(F)F target="SARS-CoV-2 strain USA-WA1/2020" measurement="> 1 µM"
smiles_input=O=C(NC12CC(F)(C1)C2)C(=O)N[C@]1(C(=O)N[C@@H](C[C@@H]2CCNC2=O)C(=O)COC(F)(F)F)C[C@H]1C1CC1 target="SARS-CoV-2 strain USA-WA1/2020" measurement="> 1 µM"

Next, consider the following compound.
Lab note: measured EC50 of "CC1(NC(=O)C(=O)N2CC3(CCC3)C[C@H]2C(=O)N[C@@H](C[C@@H]2CCNC2=O)C(=O)COC(F)(F)F)CC1" was > 1 µM

----------
Test system: SARS-CoV-2 strain USA-WA1/2020
Experiment: microbe, parasite or virus in culture
Type: cell-based
Conditions: Severe acute respiratory syndrome coronavirus 2, HeLa-ACE2, 24 h, read-out: EC50, uM (Hela)
Assay readout: EC50

Lab note: measured EC50 of CC(C)C[C@H](CC(=O)NCc1ccccc1F)C(=O)N[C@@H](C[C@@H]1CCNC1=O)C(=O)COc1c(F)c(F)cc(F)c1F [Compound 54] was > 1 µM

----------
Tested on: SARS-CoV-2 strain USA-WA1/2020
Experiment: microbe, parasite or virus in culture
Assay type: cell-based
Settings: Severe acute respiratory syndrome coronavirus 2, HeLa-ACE2, 24 h, HeLa-ACE2 cells, SARS-CoV-2 infection, 24 h; given as bound; read-out: EC50, uM (Hela)
Measured EC50, listed per entry.

Solved cases below.
smiles_input=CC(C)(C)NC(=O)C(=O)N1CC2(COC2)C[C@H]1C(=O)N[C@@H](C[C@@H]1CCNC1=O)C(=O)COC(F)(F)F target="SARS-CoV-2 strain USA-WA1/2020" assay_readout=EC50 measurement="> 1 µM"
smiles_input=O=C(Nc1ccccc1F)C(=O)N1C[C@H]2C[C@]1(C(=O)N[C@@H](C[C@@H]1CCNC1=O)C(=O)COC(F)(F)F)C2 target="SARS-CoV-2 strain USA-WA1/2020" assay_readout=EC50 measurement="> 1 µM"
smiles_input=CC1(NC(=O)C(=O)N2[C@H](C(=O)N[C@@H](C[C@@H]3CCNC3=O)C(=O)COC(F)(F)F)CCC23CC3)CC1 target="SARS-CoV-2 strain USA-WA1/2020" assay_readout=EC50 measurement="> 1 µM"

Lab note: measured EC50 of "CC(=O)N[C@H](C(=O)N1CC2(CC2)C[C@H]1C(=O)N[C@@H](C[C@@H]1CCNC1=O)C(=O)COC(F)(F)F)C(C)(C)C" was > 1 µM

Lab note: measured EC50 of "CO[C@@H]1C[C@@H](C(=O)N[C@@H](C[C@@H]2CCNC2=O)C(=O)COC(F)(F)F)N(C(=O)C(=O)NC(C)(C)C)C1" was > 1 µM
